Source of measurements: PubChem BioAssay AID1963984

System: 233499-124-R-J3-PDC spheroids with HUVEC/MSC, viability
experiment summary: Anticancer human tumor 233499-124-R-J3-PDC patient-derived colon adenocarcinoma cell line growth inhibition [PI3K]
study conditions: second compound 0.316 µM; first compound 3.16 µM; hits give low values
Excerpt: Combinatorial screen of targeted agents with the PI3K inhibitors inavolisib, alpelisib, duvelisib, and copanlisib in multi-cell type tumor spheroids A high-throughput screen of multi-cell type tumor spheroids was designed to identify active combinations of targeted small molecules and PI3K pathway inhibitors. […] Compounds. […] If the clinical Cmax for an agent had not been determined, the highest concentration tested was 10 microM. […]
property name: viability, T/C

Previously resolved entries follow.
1. C[C@@H](NC(=O)c1ncnc(N)c1Cl)c1ncc(C(=O)Nc2cc(C(F)(F)F)c(Cl)cn2)s1 + COc1c(OCCCN2CCOCC2)ccc2c3n(c(=NC(=O)c4cnc(N)nc4)nc12)CCN3 : 45.6%
2. CCCS(=O)(=O)Nc1ccc(F)c(C(=O)c2c[nH]c3ncc(-c4ccc(Cl)cc4)cc23)c1F + COc1c(OCCCN2CCOCC2)ccc2c3n(c(=NC(=O)c4cnc(N)nc4)nc12)CCN3 : 23.6%

Hi! What's the reported viability, T/C for C[C@@H](NC(=O)c1ncnc(N)c1Cl)c1ncc(C(=O)Nc2cc(C(F)(F)F)c(Cl)cn2)s1 + CC(Nc1ncnc2nc[nH]c12)c1cc2cccc(Cl)c2c(=O)n1-c1ccccc1 on 233499-124-R-J3-PDC spheroids with HUVEC/MSC, viability?
89.2%

Hi! What's the reported viability, T/C for CCCS(=O)(=O)Nc1ccc(F)c(C(=O)c2c[nH]c3ncc(-c4ccc(Cl)cc4)cc23)c1F + CC(Nc1ccc2c(c1)OCCn1cc(N3C(=O)OCC3C(F)F)nc1-2)C(N)=O on 233499-124-R-J3-PDC spheroids with HUVEC/MSC, viability?
54.5%

Hi! What's the reported viability, T/C for CC(Cn1ccc(-c2ccc(C#N)c(Cl)c2)n1)NC(=O)c1cc(C(C)O)[nH]n1 (stereo not given) + COc1c(OCCCN2CCOCC2)ccc2c3n(c(=NC(=O)c4cnc(N)nc4)nc12)CCN3 on 233499-124-R-J3-PDC spheroids with HUVEC/MSC, viability?
23.6%

----------
System: 233499-124-R-J3-PDC spheroids with HUVEC/MSC, viability
experiment summary: Anticancer human tumor 233499-124-R-J3-PDC cell line growth inhibition [PI3K];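 also: spheroids exposed to agents for seven days before readout; percent viability relative to DMSO vehicle control taken as 100%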
study conditions: second compound 0.1 µM; first compound 0.00316 µM; hits give low values
property name: viability, T/C

1. CCN1CCN(Cc2ccc(Nc3ncc(F)c(-c4cc(F)c5nc(C)n(C(C)C)c5c4)n3)nc2)CC1 + Cc1nc(NC(=O)N2CCCC2C(N)=O)sc1-c1ccnc(C(C)(C)C(F)(F)F)c1 : 72.5%
2. CC(=O)c1c(C)c2cnc(Nc3ccc(N4CCNCC4)cn3)nc2n(C2CCCC2)c1=O + CC(Nc1ccc2c(c1)OCCn1cc(N3C(=O)OCC3C(F)F)nc1-2)C(N)=O : 81.2%
3. CC(=O)c1c(C)c2cnc(Nc3ccc(N4CCNCC4)cn3)nc2n(C2CCCC2)c1=O + CC(Nc1ncnc2nc[nH]c12)c1cc2cccc(Cl)c2c(=O)n1-c1ccccc1 : 93.9%

I am curious: what viability, T/C value has been reported for CCN1CCN(Cc2ccc(Nc3ncc(F)c(-c4cc(F)c5nc(C)n(C(C)C)c5c4)n3)nc2)CC1 + COc1c(OCCCN2CCOCC2)ccc2c3n(c(=NC(=O)c4cnc(N)nc4)nc12)CCN3 ?
81.3%

----------
System: 233499-124-R-J3-PDC spheroids with HUVEC/MSC, viability
experiment summary: Anticancer human tumor 233499-124-R-J3-PDC cell line growth inhibition [PI3K];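 also: spheroids exposed to agents for seven days before readout; percent viability relative to DMSO vehicle control taken as 100%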
study conditions: second compound 1 µM; first compound 0.1 µM; hits give low values
Below, each of the compounds is paired with its reported viability, T/C value.
Answer format: numeric, % implied, no suffix.

1) CC1(C)CCC(CN2CCN(c3ccc(C(=O)NS(=O)(=O)c4ccc(NCC5CCOCC5)c([N+](=O)[O-])c4)c(Oc4cnc5[nH]ccc5c4)c3)CC2)=C(c2ccc(Cl)cc2)C1 + CC(Nc1ccc2c(c1)OCCn1cc(N3C(=O)OCC3C(F)F)nc1-2)C(N)=O : 49
2) CC1(C)CCC(CN2CCN(c3ccc(C(=O)NS(=O)(=O)c4ccc(NCC5CCOCC5)c([N+](=O)[O-])c4)c(Oc4cnc5[nH]ccc5c4)c3)CC2)=C(c2ccc(Cl)cc2)C1 + CC(Nc1ncnc2nc[nH]c12)c1cc2cccc(Cl)c2c(=O)n1-c1ccccc1 : 83.6
3) CCN1CCN(Cc2ccc(Nc3ncc(F)c(-c4cc(F)c5nc(C)n(C(C)C)c5c4)n3)nc2)CC1 + CC(Nc1ncnc2nc[nH]c12)c1cc2cccc(Cl)c2c(=O)n1-c1ccccc1 : 83.8

I am curious: what viability, T/C value has been reported for C#Cc1c(F)ccc2cc(O)cc(-c3ncc4c(N5CC6CCC(C5)N6)nc(OCC56CCCN5CC(F)C6)nc4c3F)c12 (stereo unspecified) + CC(Nc1ncnc2nc[nH]c12)c1cc2cccc(Cl)c2c(=O)n1-c1ccccc1 ?
102

I am curious: what viability, T/C value has been reported for CC(C)NCC(C(=O)N1CCN(c2ncnc3c2C(C)CC3O)CC1)c1ccc(Cl)cc1 (stereo unspecified) + CC(Nc1ccc2c(c1)OCCn1cc(N3C(=O)OCC3C(F)F)nc1-2)C(N)=O ?
40.3

I am curious: what viability, T/C value has been reported for Cn1ncc(Cl)c1-c1cc(C(=O)NC(CN)Cc2cccc(F)c2)sc1Cl (stereo unspecified) + COc1c(OCCCN2CCOCC2)ccc2c3n(c(=NC(=O)c4cnc(N)nc4)nc12)CCN3 ?
9.16

I am curious: what viability, T/C value has been reported for CNC(=O)c1ccc(N2C(=S)N(c3ccc(C#N)c(C(F)(F)F)c3)C(=O)C2(C)C)cc1F + Cc1nc(NC(=O)N2CCCC2C(N)=O)sc1-c1ccnc(C(C)(C)C(F)(F)F)c1 ?
70.3

----------
System: 233499-124-R-J3-PDC spheroids with HUVEC/MSC, viability
experiment summary: Anticancer human tumor 233499-124-R-J3-PDC cell line growth inhibition [PI3K];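 also: spheroids exposed to agents for seven days before readout; percent viability relative to DMSO vehicle control taken as 100%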
study conditions: second compound 0.316 µM; first compound 0.1 µM; hits give low values
property name: viability, T/C (%)
Answer format: numeric, % implied, no suffix.

1. Cn1ncnc1[C@H]1c2n[nH]c(=O)c3cc(F)cc(c23)N[C@@H]1c1ccc(F)cc1 + CC(Nc1ccc2c(c1)OCCn1cc(N3C(=O)OCC3C(F)F)nc1-2)C(N)=O : 58.3

I am curious: what viability, T/C value has been reported for C=CC(=O)N1CCN(c2nc(=O)n(-c3c(C)ccnc3C(C)C)c3nc(-c4c(O)cccc4F)c(F)cc23)C(C)C1 (stereo not drawn) + COc1c(OCCCN2CCOCC2)ccc2c3n(c(=NC(=O)c4cnc(N)nc4)nc12)CCN3 ?
39.4

I am curious: what viability, T/C value has been reported for Cn1ncc(Cl)c1-c1cc(C(=O)NC(CN)Cc2cccc(F)c2)sc1Cl (stereo not drawn) + Cc1nc(NC(=O)N2CCCC2C(N)=O)sc1-c1ccnc(C(C)(C)C(F)(F)F)c1 ?
94

----------
Tested on: 233499-124-R-J3-PDC spheroids with HUVEC/MSC, viability
experiment summary: Anticancer human tumor 233499-124-R-J3-PDC cell line growth inhibition [PI3K];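 also: spheroids exposed to agents for seven days before readout; percent viability relative to DMSO vehicle control taken as 100%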
study conditions: second compound 0.01 µM; first compound 1 µM; hits give low values
property name: viability, T/C (%)
Answer format: numeric, % implied, no suffix.

Previously resolved entries follow.
1. CC1(C)CCC(Nc2ncc(C(F)(F)F)c(-c3c[nH]c4c(P(C)(C)=O)c(C#N)ccc34)n2)CN1 (stereo unspecified) + COc1c(OCCCN2CCOCC2)ccc2c3n(c(=NC(=O)c4cnc(N)nc4)nc12)CCN3 : 15.7
2. C=CC(=O)N1CCN(c2nc(=O)n(-c3c(C)ccnc3C(C)C)c3nc(-c4c(O)cccc4F)c(F)cc23)C(C)C1 (stereo unspecified) + COc1c(OCCCN2CCOCC2)ccc2c3n(c(=NC(=O)c4cnc(N)nc4)nc12)CCN3 : 86.5
3. Cn1nccc1Nc1nccc(-c2ccn(C(CO)c3ccc(Cl)c(F)c3)c(=O)c2)n1 (stereo unspecified) + CC(Nc1ccc2c(c1)OCCn1cc(N3C(=O)OCC3C(F)F)nc1-2)C(N)=O : 74.9
4. CC(C)NCC(C(=O)N1CCN(c2ncnc3c2C(C)CC3O)CC1)c1ccc(Cl)cc1 (stereo unspecified) + CC(Nc1ccc2c(c1)OCCn1cc(N3C(=O)OCC3C(F)F)nc1-2)C(N)=O : 96.2
5. CC1(C)CCC(Nc2ncc(C(F)(F)F)c(-c3c[nH]c4c(P(C)(C)=O)c(C#N)ccc34)n2)CN1 (stereo unspecified) + CC(Nc1ccc2c(c1)OCCn1cc(N3C(=O)OCC3C(F)F)nc1-2)C(N)=O : 22.1
6. CNC(=O)c1ccc(N2C(=S)N(c3ccc(C#N)c(C(F)(F)F)c3)C(=O)C2(C)C)cc1F + CC(Nc1ccc2c(c1)OCCn1cc(N3C(=O)OCC3C(F)F)nc1-2)C(N)=O : 76.9
7. CCCS(=O)(=O)Nc1ccc(F)c(C(=O)c2c[nH]c3ncc(-c4ccc(Cl)cc4)cc23)c1F + CC(Nc1ccc2c(c1)OCCn1cc(N3C(=O)OCC3C(F)F)nc1-2)C(N)=O : 98.2
8. CC1(C)CCC(CN2CCN(c3ccc(C(=O)NS(=O)(=O)c4ccc(NCC5CCOCC5)c([N+](=O)[O-])c4)c(Oc4cnc5[nH]ccc5c4)c3)CC2)=C(c2ccc(Cl)cc2)C1 + CC(Nc1ccc2c(c1)OCCn1cc(N3C(=O)OCC3C(F)F)nc1-2)C(N)=O : 74.7

I am curious: what viability, T/C value has been reported for Cn1ncc(Cl)c1-c1cc(C(=O)NC(CN)Cc2cccc(F)c2)sc1Cl (stereo unspecified) + CC(Nc1ccc2c(c1)OCCn1cc(N3C(=O)OCC3C(F)F)nc1-2)C(N)=O ?
80.8

I am curious: what viability, T/C value has been reported for CC(C)NCC(C(=O)N1CCN(c2ncnc3c2C(C)CC3O)CC1)c1ccc(Cl)cc1 (stereo unspecified) + COc1c(OCCCN2CCOCC2)ccc2c3n(c(=NC(=O)c4cnc(N)nc4)nc12)CCN3 ?
97.1

I am curious: what viability, T/C value has been reported for Cn1nccc1Nc1nccc(-c2ccn(C(CO)c3ccc(Cl)c(F)c3)c(=O)c2)n1 (stereo unspecified) + COc1c(OCCCN2CCOCC2)ccc2c3n(c(=NC(=O)c4cnc(N)nc4)nc12)CCN3 ?
78.3
